Test system: SNB-75
experimentSummary: NCI tumour cell line growth inhibition, 48 h
Activity calls are given as the source filed them. Cut-off read from the data, not from the text of the source: active = GI50 up to about 1.1 µM and inactive = higher.
Choose the fitting class; nothing outside active, inactive is accepted.

Short answer needed: outcome of this test for Cc1nc2c(=O)n(C)c(=O)n(C)c2o1 ?
inactive

Called result for COc1cccc2c1/c(=C/c1ccc(N(C)C)cc1)c1cc(-c3ccccc3)[n+](C)n12
active

Recorded test outcome, item Cc1ccc2nc(CN3CCCC(O)C3)cc(=O)n2c1 (stereo not given)
inactive

Could you check what this test reported for O=C(N/N=C(COc1ccccc1Cl)\N=C\c1ccncc1)c1ccncc1 ?
inactive

Called result for O=C(O)CN(c1ccccc1)S(=O)(=O)c1ccc(NC(=O)c2ccccc2)cc1
inactive

Test call, this molecule: CC[C@@H]1C[C@@H]2CN3CCc4c([nH]c5ccc(OC)cc45)C(COC(=O)c4ccc(OC)c(OC)c4)(C2)C13
inactive

Dear colleague, could you share the recorded outcome for C=C1CC(OC)(C(O)C(=O)N[C@H]2OCO[C@H]3C2O[C@H](C[C@@H](COC)OC)C(C)(C)C3OC)O[C@H](C)[C@@H]1C (stereo not given in full) when you have a moment?
active

// outcome(item) with item = C=CCN1C(=O)/C(=C/c2ccc(OC)cc2)NC1=S
inactive

For CC#CC(O)(C(=O)OC1CC(C)N(C)C(C)(C)C1)C1CCCC1 (stereo not given) , what call appears in the results of this test?
inactive

How was COc1ccccc1-n1c(=O)n(C)c(=O)n1C(C)(C)C classified in this test?
inactive
